Measured IC50 accompanies every entry in the list below.
Target: bovine cardiac myofibrils (full-length cardiac myosin ATPase in the native sarcomere) (Bos taurus (Bovine), UniProt Q9BE39)
Sequence (Q9BE39 whole entry): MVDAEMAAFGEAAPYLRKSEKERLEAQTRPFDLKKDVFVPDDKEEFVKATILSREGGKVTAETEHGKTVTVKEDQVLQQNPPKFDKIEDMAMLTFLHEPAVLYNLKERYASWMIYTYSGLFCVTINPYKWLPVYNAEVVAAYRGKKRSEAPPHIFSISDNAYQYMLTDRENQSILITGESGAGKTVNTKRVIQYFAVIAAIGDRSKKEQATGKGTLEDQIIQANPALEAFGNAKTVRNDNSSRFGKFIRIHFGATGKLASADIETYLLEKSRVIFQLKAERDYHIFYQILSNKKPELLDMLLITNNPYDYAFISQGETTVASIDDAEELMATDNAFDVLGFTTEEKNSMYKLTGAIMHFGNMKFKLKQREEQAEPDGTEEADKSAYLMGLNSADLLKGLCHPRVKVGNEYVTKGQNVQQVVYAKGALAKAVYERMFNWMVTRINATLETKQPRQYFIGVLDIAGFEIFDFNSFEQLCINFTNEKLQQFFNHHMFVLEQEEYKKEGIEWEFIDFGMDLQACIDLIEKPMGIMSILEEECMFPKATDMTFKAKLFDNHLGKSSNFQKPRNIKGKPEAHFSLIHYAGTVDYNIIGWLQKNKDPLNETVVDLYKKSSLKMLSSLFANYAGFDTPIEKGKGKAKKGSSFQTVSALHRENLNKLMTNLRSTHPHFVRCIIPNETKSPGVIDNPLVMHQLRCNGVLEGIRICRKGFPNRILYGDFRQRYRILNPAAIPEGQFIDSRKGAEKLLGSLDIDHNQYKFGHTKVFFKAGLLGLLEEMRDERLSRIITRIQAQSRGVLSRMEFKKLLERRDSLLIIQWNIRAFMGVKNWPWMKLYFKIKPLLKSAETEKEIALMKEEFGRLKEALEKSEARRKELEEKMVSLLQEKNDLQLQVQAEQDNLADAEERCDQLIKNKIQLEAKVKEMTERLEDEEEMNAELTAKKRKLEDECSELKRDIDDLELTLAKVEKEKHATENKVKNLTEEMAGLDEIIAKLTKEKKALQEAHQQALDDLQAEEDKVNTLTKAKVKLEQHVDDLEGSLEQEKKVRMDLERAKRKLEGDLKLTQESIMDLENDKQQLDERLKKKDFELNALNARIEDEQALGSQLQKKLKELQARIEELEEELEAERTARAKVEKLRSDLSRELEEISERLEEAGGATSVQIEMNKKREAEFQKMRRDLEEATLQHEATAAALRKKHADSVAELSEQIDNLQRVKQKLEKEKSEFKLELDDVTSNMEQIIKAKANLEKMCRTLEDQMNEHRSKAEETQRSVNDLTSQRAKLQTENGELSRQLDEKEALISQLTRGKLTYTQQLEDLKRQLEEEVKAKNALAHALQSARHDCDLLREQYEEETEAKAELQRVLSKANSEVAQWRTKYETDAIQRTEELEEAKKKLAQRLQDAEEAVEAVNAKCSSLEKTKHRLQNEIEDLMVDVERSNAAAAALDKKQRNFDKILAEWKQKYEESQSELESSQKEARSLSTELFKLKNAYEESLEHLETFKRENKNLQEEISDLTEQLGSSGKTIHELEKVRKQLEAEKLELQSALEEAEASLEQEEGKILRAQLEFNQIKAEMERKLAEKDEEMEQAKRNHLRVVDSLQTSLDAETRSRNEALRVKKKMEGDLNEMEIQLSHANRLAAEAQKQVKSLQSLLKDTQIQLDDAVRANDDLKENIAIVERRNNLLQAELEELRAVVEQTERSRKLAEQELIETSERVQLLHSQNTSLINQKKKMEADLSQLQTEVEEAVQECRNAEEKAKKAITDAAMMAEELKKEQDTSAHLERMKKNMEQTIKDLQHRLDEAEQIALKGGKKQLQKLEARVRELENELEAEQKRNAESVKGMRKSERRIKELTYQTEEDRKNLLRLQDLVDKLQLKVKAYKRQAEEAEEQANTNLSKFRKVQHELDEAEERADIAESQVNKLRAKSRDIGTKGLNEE
Sequence (P85100 whole entry partner): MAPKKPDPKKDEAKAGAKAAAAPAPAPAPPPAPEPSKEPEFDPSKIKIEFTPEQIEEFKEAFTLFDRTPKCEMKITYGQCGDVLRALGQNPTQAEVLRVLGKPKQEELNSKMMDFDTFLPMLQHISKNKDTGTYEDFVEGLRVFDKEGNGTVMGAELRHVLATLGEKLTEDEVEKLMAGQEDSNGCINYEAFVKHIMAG
Sequence (Q3SZE5 whole entry partner): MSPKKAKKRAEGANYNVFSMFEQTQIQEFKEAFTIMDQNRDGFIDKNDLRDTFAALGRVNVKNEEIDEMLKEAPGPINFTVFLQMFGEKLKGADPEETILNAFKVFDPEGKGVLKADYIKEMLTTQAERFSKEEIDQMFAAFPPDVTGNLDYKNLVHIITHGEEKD
Test: Skinned bovine cardiac myofibril ATPase assay (PK/LDH-coupled)
Conditions: Ca2+ activating to 75% of maximal rate, read-out: CDMF75 IC50
Quantity Name: IC50 (µM)

Molecule	Operator	Experimental Result
CCc1nc(-c2ccc3c(c2)CC[C@H]3NC(=O)c2cnc(C)o2)no1 [Compound 385]	=	1.7
O=C(NC1CCc2cc(-c3noc(C(F)F)n3)ccc21)c1ccnc(O)c1 (stereo not drawn) [Compound 95]	=	8
COC(=O)N[C@@H]1CCc2cc(-c3noc(C4CC4)n3)ccc21 [Compound 305]	=	1.2
Cc1cc(C(=O)NC2CCc3cc(-c4cc(C)on4)ccc32)ccn1 (stereo not drawn) [Compound 137]	=	4.9
Cc1cc(C(=O)N[C@@H]2CCc3cc(-c4nc(C)no4)ccc32)cnn1 [Compound 705]	=	28.1
CCc1nc(-c2ccc3c(c2)CC[C@H]3NC(=O)c2ccnc(Cl)c2)no1 [Compound 647]	=	0.9
Cc1nc(-c2ccc3c(c2)OCC3NC(=O)c2ccnn2C)no1 (stereo not drawn) [Compound 121]	=	3.1
O=C(N[C@@H]1CCc2cc(-c3noc(C(F)F)n3)ccc21)OC1CCC1 [Compound 281]	>	39.2
COCc1nc(-c2ccc3c(c2)CC[C@H]3NC(=O)c2oc(C)nc2C)no1 [Compound 180]	=	5.8
C=Cc1cccc(C(=O)N[C@@H]2CCc3cc(-c4noc(CC)n4)ccc32)c1 [Compound 657]	=	0.7
Cc1c(C(=O)N[C@@H]2CCc3cc(-c4noc(C(F)F)n4)ccc32)cnn1CCO [Compound 675]	=	2.7
CCc1nc(-c2ccc3c(c2)OCCC3NC(=O)c2ccnn2C)no1 (stereo not drawn) [Compound 536]	=	3.5
O=C(N[C@@H]1CCc2cc(-c3noc(C4CC4)n3)ccc21)c1cn[nH]c1 [Compound 489]	=	2.2
Cc1nc(-c2ccc3c(c2)CCC3NC(=O)c2conc2C)no1 (stereo not drawn) [Compound 89]	=	3.3
Cc1nc(-c2ccc3c(c2)CCC3NC(=O)Nc2cccnc2)no1 (stereo not drawn) [Compound 62]	=	8.7
Cc1cc(-c2ccc3c(c2)OC[C@H]3NC(=O)c2nnn(C)n2)no1 [Compound 364]	=	6.8
COCc1nc(-c2ccc3c(c2)OC[C@H]3NC(=O)c2cc(C)nn2C)no1 [Compound 227]	=	2.2
Cc1cc(-c2ccc3c(c2)CC[C@H]3NC(=O)c2cnn(C)c2)no1 [Compound 402]	=	3.8
